# target.or.test.system: Peroxisome proliferator-activated receptor gamma (Homo sapiens)
# protocol.description: Displacement of fluormone-PPARgamma green from GST-tagged PPARgamma-LBD (unknown origin) by fluorescence polarization assay
# stated.conditions: read-out: IC50
pIC50: −log10 of the molar value.
Measured pIC50 of individual entries
recorded.endpoint: pIC50

> print(dat)
                                   molecule  assay.result
1  Cc1nc2ccccc2n(CC(=O)Nc2ccc(S(=O)(=O)NC(=O)Nc3ccccc3)cc2)c1=O          5.40
2  O=C(NC1CCCCC1)NS(=O)(=O)c1ccc(CCNS(=O)(=O)c2ccc(Br)cc2)cc1          5.62
3  Cc1nc2ccccc2c(=O)n1CC(=O)Nc1ccc(S(=O)(=O)NC(=O)NC2CCCCC2)cc1          6.33
4  CCc1nc2ccccc2c(=O)n1CC(=O)Nc1ccc(S(=O)(=O)NC(=O)NC2CCCCC2)cc1          6.23
5  CCCCNC(=O)NS(=O)(=O)c1ccc(NC(=O)Cn2c(C)nc3ccccc3c2=O)cc1          6.01

----------
# target.or.test.system: Peroxisome proliferator-activated receptor gamma (Homo sapiens, UniProt P37231)
# protocol.description: Displacement of fluormone-PPARgamma green from GST-tagged PPARgamma-LBD (unknown origin) by fluorescence polarization assay
# stated.conditions: read-out: IC50
// values below are reported IC50
recorded.endpoint: IC50

> print(dat)
                                   compound                     target.or.test.system  assay.result
1  CC1CCC(NC(=O)NS(=O)(=O)c2ccc(CCNS(=O)(=O)c3ccc(Br)cc3)cc2)CC1 (centres undefined)  Peroxisome proliferator-activated receptor gamma (Homo sapiens, UniProt P37231)        1.6 µM
2  O=C(NC1CCCCC1)NS(=O)(=O)c1ccc(CCNS(=O)(=O)c2ccc(Cl)cc2)cc1  Peroxisome proliferator-activated receptor gamma (Homo sapiens, UniProt P37231)        3.1 µM
3  CC1CCC(NC(=O)NS(=O)(=O)c2ccc(CCNS(=O)(=O)c3ccccc3)cc2)CC1 (centres undefined)  Peroxisome proliferator-activated receptor gamma (Homo sapiens, UniProt P37231)        3.4 µM
4  Cc1ccc(NC(=S)NS(=O)(=O)c2ccc(CCNS(=O)(=O)c3ccccc3)cc2)cc1  Peroxisome proliferator-activated receptor gamma (Homo sapiens, UniProt P37231)         50 µM
5  CCCCNC(=S)NS(=O)(=O)c1ccc(NC(=O)Cn2c(=O)c(C)nc3ccccc32)cc1  Peroxisome proliferator-activated receptor gamma (Homo sapiens, UniProt P37231)          4 µM
6  Cc1ccc(-n2c(SCC(=O)Nc3ccc(S(=O)(=O)NC(=O)Nc4ccccc4)cc3)nc3ccccc3c2=O)cc1  Peroxisome proliferator-activated receptor gamma (Homo sapiens, UniProt P37231)      0.371 µM
7  Cc1nc2ccc(Br)cc2c(=O)n1CC(=O)Nc1ccc(S(=O)(=O)NC(=O)NC2CCCCC2)cc1  Peroxisome proliferator-activated receptor gamma (Homo sapiens, UniProt P37231)      0.353 µM
8  Cc1nc2ccccc2n(CC(=O)Nc2ccc(S(=O)(=O)NC(=O)NC3CCCCC3)cc2)c1=O  Peroxisome proliferator-activated receptor gamma (Homo sapiens, UniProt P37231)          4 µM
9  COc1ccc(-n2c(SCC(=O)Nc3ccc(S(=O)(=O)NC(=O)NC4CCCCC4)cc3)nc3ccccc3c2=O)cc1  Peroxisome proliferator-activated receptor gamma (Homo sapiens, UniProt P37231)       0.35 µM

----------
We begin with a simple list: items and their reported Activity.
# Test system: Rattus norvegicus
# protocol.description: Antihyperglycemic activity in streptozotocin-induced diabetic Swiss albino rat assessed as decrease in blood glucose level at 20 mg/kg, po measured up to 3 hrs post dose relative to control
# Format: functional
# Parameters: scale not given: the % may be the effect or the level left
recorded.endpoint: Activity (%)

> print(dat)
                                    molecule  recorded.endpoint  unit  assay.result
 1  COc1ccc(-n2c(SCC(=O)Nc3ccc(S(=O)(=O)NC(=O)Nc4ccccc4)cc3)nc3ccccc3c2=O)cc1           Activity     %         24.58
 2  Cc1nc2ccccc2c(=O)n1CC(=O)Nc1ccc(S(=O)(=O)NC(=O)NC2CCCCC2)cc1           Activity     %         38.64
 3  CCCCNC(=O)NS(=O)(=O)c1ccc(NC(=O)Cn2c(C)nc3ccccc3c2=O)cc1           Activity     %         29.22
 4  CCCCNC(=O)NS(=O)(=O)c1ccc(NC(=O)Cn2c(CC)nc3ccccc3c2=O)cc1           Activity     %         38.44
 5  CCCCNC(=O)NS(=O)(=O)c1ccc(NC(=O)CSc2nc3ccccc3c(=O)n2-c2ccc(OC)cc2)cc1           Activity     %         41.23
 6  CCCCNC(=O)NS(=O)(=O)c1ccc(NC(=O)CSc2nc3ccccc3c(=O)n2-c2ccc(C)cc2)cc1           Activity     %         37.76
 7  CCc1nc2ccccc2c(=O)n1CC(=O)Nc1ccc(S(=O)(=O)NC(=O)NC2CCCCC2)cc1           Activity     %         34.25
 8  Cc1nc2ccccc2c(=O)n1CC(=O)Nc1ccc(S(=O)(=O)NC(=O)Nc2ccccc2)cc1           Activity     %         19.66
 9  Cc1ccc(-n2c(SCC(=O)Nc3ccc(S(=O)(=O)NC(=O)Nc4ccccc4)cc3)nc3ccccc3c2=O)cc1           Activity     %         33.42
10  Cc1nc2ccc(Br)cc2c(=O)n1CC(=O)Nc1ccc(S(=O)(=O)NC(=O)NC2CCCCC2)cc1           Activity     %          42.5
11  CCc1nc2ccccc2c(=O)n1CC(=O)Nc1ccc(S(=O)(=O)NC(=O)Nc2ccccc2)cc1           Activity     %         21.55
12  Cc1nc2ccc(Br)cc2c(=O)n1CC(=O)Nc1ccc(S(=O)(=O)NC(=O)Nc2ccccc2)cc1           Activity     %         21.33
13  Cc1ccc(-n2c(SCC(=O)Nc3ccc(S(=O)(=O)NC(=O)NC4CCCCC4)cc3)nc3ccccc3c2=O)cc1           Activity     %         40.43
14  COc1ccc(-n2c(SCC(=O)Nc3ccc(S(=O)(=O)NC(=O)NC4CCCCC4)cc3)nc3ccccc3c2=O)cc1           Activity     %         46.42
15  CCCCNC(=O)NS(=O)(=O)c1ccc(NC(=O)Cn2c(C)nc3ccc(Br)cc3c2=O)cc1           Activity     %         28.25

----------
# protocol.description: Agonist activity at SUR in Wistar rat pancreatic islets assessed as increase in insulin secretion at 5 to 20 uM incubated for 1 hr followed by glucose addition for 30 mins by quantitative sandwich enzyme immunoassay
pEC50: −log10 of the molar value.
recorded.endpoint: pEC50

> print(dat)
                                   compound  recorded.endpoint  assay.result
1  CCC1=C(C)CN(C(=O)NCCc2ccc(S(=O)(=O)NC(=O)N[C@H]3CC[C@H](C)CC3)cc2)C1=O [GLIMEPIRIDE]              pEC50          6.10
2  CCCCNC(=O)NS(=O)(=O)c1ccc(NC(=O)CSc2nc3ccccc3c(=O)n2-c2ccc(OC)cc2)cc1              pEC50          6.00
3  CCCCNC(=O)NS(=O)(=O)c1ccc(NC(=O)CSc2nc3ccccc3c(=O)n2-c2ccc(C)cc2)cc1              pEC50          5.82
4  Cc1nc2ccccc2c(=O)n1CC(=O)Nc1ccc(S(=O)(=O)NC(=O)NC2CCCCC2)cc1              pEC50          5.57

----------
IC50 overview
# target.or.test.system: Peroxisome proliferator-activated receptor gamma (Homo sapiens, UniProt P37231)
# Sequence (P37231 whole entry): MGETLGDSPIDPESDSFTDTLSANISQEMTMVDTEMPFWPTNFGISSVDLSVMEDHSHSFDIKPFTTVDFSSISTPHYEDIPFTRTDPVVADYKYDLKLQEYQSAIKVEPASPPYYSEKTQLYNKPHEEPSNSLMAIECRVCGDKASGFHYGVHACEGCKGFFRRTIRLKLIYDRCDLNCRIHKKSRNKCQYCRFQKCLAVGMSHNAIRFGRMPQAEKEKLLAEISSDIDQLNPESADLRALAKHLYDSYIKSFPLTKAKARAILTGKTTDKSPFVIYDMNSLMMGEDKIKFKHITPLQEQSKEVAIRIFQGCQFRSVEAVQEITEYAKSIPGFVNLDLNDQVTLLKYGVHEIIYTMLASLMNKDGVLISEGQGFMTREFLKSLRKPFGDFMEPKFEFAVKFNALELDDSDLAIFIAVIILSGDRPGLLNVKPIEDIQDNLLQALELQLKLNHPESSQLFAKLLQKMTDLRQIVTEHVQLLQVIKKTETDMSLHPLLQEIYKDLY
# protocol.description: Displacement of fluormone-PPARgamma green from GST-tagged PPARgamma-LBD (unknown origin) by fluorescence polarization assay
# stated.conditions: read-out: IC50
recorded.endpoint: IC50 (µM)

> print(dat)
                                   molecule                     target.or.test.system  assay.result
1  Cc1nc2ccccc2n(CC(=O)Nc2ccc(S(=O)(=O)NC(=S)NC3CCCCC3)cc2)c1=O  Peroxisome proliferator-activated receptor gamma (Homo sapiens, UniProt P37231)             4
2  O=C(NC1CCCCC1)NS(=O)(=O)c1ccc(CCNS(=O)(=O)c2ccccc2)cc1  Peroxisome proliferator-activated receptor gamma (Homo sapiens, UniProt P37231)          12.5
3  COc1ccc(NC(=S)NS(=O)(=O)c2ccc(CCNS(=O)(=O)c3ccc(Cl)cc3)cc2)cc1  Peroxisome proliferator-activated receptor gamma (Homo sapiens, UniProt P37231)          33.3
4  CCCCNC(=O)NS(=O)(=O)c1ccc(NC(=O)Cn2c(=O)c(C)nc3ccccc32)cc1  Peroxisome proliferator-activated receptor gamma (Homo sapiens, UniProt P37231)             4
5  O=S(=O)(NCCc1ccc(S(=O)(=O)NC(=S)Nc2ccc(Cl)cc2)cc1)c1ccccc1  Peroxisome proliferator-activated receptor gamma (Homo sapiens, UniProt P37231)          33.3
6  Cc1nc2ccccc2n(CC(=O)Nc2ccc(S(=O)(=O)NC(=S)Nc3ccccc3)cc2)c1=O  Peroxisome proliferator-activated receptor gamma (Homo sapiens, UniProt P37231)             4
7  COc1ccc(NC(=S)NS(=O)(=O)c2ccc(CCNS(=O)(=O)c3ccccc3)cc2)cc1  Peroxisome proliferator-activated receptor gamma (Homo sapiens, UniProt P37231)          1000
8  CCCCNC(=O)NS(=O)(=O)c1ccc(NC(=O)CSc2nc3ccccc3c(=O)n2-c2ccc(OC)cc2)cc1  Peroxisome proliferator-activated receptor gamma (Homo sapiens, UniProt P37231)         0.369
9  CCCCNC(=O)NS(=O)(=O)c1ccc(NC(=O)Cn2c(CC)nc3ccccc3c2=O)cc1  Peroxisome proliferator-activated receptor gamma (Homo sapiens, UniProt P37231)         0.408
